Every entry's value here was drawn from patent US20240108738A1.

molecular target: CD16a (V Variant) (Homo sapiens, UniProt P08637, F176V); test: FcγRIII (CD16a) SPR (Method A and/or Method B), V variant; type: binding; details: SPR Method A and/or B, Table 6B; read-out: Kd (nM) (V Variant)
Sequence (P08637 17-208 F176V): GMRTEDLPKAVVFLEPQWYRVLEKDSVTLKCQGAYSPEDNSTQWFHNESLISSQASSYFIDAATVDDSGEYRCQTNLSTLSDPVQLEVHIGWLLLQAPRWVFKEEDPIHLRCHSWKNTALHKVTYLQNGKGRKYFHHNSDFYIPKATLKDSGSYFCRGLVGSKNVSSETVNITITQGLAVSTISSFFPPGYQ
Numbered stars: 1 amine (or outer) side, 2 acyl side, 3 side chain; on linkers, the order of the positions; unused ones are H or OH. Bridge positions count the residues as written; N and C are the ends. Peptide text beside a SMILES is read from it. TATA = O=C(CC[*:1])N1CN(C(=O)CC[*:2])CN(C(=O)CC[*:3])C1
Quantity: Kd (nM)
Give the number; nM is assumed, so skip it.

CC(C)C[C@@H]1NC(=O)[C@@H]2CCCN2C(=O)[C@H](Cc2c[nH]cn2)NC(=O)[C@@H]2CSCCC(=O)N3CN(CN(C3)C(=O)CCSC[C@H](NC(=O)[C@H](C)N)C(=O)N3CCC[C@H]3C(=O)N3CCC[C@H]3C(=O)N[C@@H](CCC(N)=O)C(=O)N[C@@H](C(C)C)C(=O)N[C@@H](Cc3ccc(O)cc3)C(=O)N2)C(=O)CCSC[C@@H](C(=O)N[C@@H](C)C(N)=O)NC(=O)[C@H](CC(=O)O)NC1=O [BCY11812, A-(SEQ ID NO: 173)-A] (H-ACPPQVYCHPLDCA-NH2; linker 2-8-13 via TATA; C-terminus assumed) :: 2400
CC(C)C[C@@H]1NC(=O)[C@@H]2CCCN2C(=O)[C@H](Cc2c[nH]cn2)NC(=O)[C@@H]2CSCCC(=O)N3CN(CN(C3)C(=O)CCSC[C@H](NC(=O)[C@H](C)N)C(=O)N3CCC[C@H]3C(=O)N3CCC[C@H]3C(=O)N[C@@H](C)C(=O)N[C@@H](C(C)C)C(=O)N[C@@H](Cc3ccc(O)cc3)C(=O)N2)C(=O)CCSC[C@@H](C(=O)N[C@@H](C)C(N)=O)NC(=O)[C@H](CC(=O)O)NC1=O [BCY11673, A-(SEQ ID NO: 169)-A] (H-ACPPAVYCHPLDCA-NH2; linker 2-8-13 via TATA; C-terminus assumed) :: 3310
CC(C)C[C@@H]1NC(=O)[C@@H]2CCCN2C(=O)[C@H](Cc2c[nH]cn2)NC(=O)[C@@H]2CSCCC(=O)N3CN(CN(C3)C(=O)CCSC[C@H](NC(=O)[C@H](C)N)C(=O)N3CCC[C@H]3C(=O)N3CCC[C@H]3C(=O)N[C@@H]([C@@H](C)O)C(=O)N[C@@H](C(C)C)C(=O)N[C@@H](Cc3ccc(O)cc3)C(=O)N2)C(=O)CCSC[C@@H](C(=O)N[C@@H](C)C(N)=O)NC(=O)[C@H](CC(=O)O)NC1=O [BCY11808, A-(SEQ ID NO: 60)-A] :: 3710

Now consider a different compound.
GET /value?item= CC(C)C[C@@H]1NC(=O)[C@@H]2CCCN2C(=O)[C@H](Cc2c[nH]cn2)NC(=O)[C@@H]2CSCCC(=O)N3CN(CN(C3)C(=O)CCSC[C@H](NC(=O)[C@H](C)N)C(=O)N3CCC[C@H]3C(=O)N3CCC[C@H]3C(=O)N[C@@H](CCC(=O)O)C(=O)N[C@@H](C(C)C)C(=O)N[C@@H](Cc3ccc(O)cc3)C(=O)N2)C(=O)CCSC[C@@H](C(=O)N[C@@H](C)C(N)=O)NC(=O)[C@H](CC(=O)O)NC1=O [BCY11810, A-(SEQ ID NO: 171)-A] (H-ACPPEVYCHPLDCA-NH2; linker 2-8-13 via TATA) &field=Kd returns 832
